Biological target: STAT6 (Homo sapiens, UniProt P42226)
Construct: These cells express endogenous STAT6; host or cells: HeLa LgBiT clone 4.14 (CRISPR knock-in of HiBiT into the endogenous STAT6 gene)
Sequence (P42226 1-847): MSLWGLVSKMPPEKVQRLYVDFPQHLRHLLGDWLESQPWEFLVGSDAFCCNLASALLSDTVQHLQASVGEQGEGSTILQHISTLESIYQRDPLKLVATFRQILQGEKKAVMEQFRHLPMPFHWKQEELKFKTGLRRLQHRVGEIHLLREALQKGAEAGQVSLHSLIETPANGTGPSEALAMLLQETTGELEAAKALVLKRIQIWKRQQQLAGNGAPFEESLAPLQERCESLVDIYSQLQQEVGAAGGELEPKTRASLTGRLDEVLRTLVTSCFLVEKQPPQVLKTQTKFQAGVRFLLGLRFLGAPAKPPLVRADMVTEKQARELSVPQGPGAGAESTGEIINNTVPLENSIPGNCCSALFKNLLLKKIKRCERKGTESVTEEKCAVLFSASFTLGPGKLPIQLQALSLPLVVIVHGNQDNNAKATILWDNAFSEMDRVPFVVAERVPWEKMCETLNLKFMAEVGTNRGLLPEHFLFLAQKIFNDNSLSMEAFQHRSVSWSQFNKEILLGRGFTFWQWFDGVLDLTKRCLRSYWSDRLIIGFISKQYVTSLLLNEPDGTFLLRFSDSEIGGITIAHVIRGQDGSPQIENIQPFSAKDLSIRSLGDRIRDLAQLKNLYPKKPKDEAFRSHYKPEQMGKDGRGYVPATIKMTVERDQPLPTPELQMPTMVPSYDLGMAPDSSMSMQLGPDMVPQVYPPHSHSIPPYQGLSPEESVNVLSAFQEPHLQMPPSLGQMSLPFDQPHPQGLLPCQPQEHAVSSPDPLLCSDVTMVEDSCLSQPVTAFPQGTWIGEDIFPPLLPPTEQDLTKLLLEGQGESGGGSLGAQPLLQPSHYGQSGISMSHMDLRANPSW
Assay: STAT6 Degrader Assay (HiBiT based, HeLa LgBiT clone 4.14 cells)
Type: cell-based
Settings: geometric mean across assay runs and compound batches; DC50 provided for test compounds with >80% Emax; read-out: STAT6 degradation DC50
Procedure: This was a HiBit based assay. A HeLa cell line stably transfected with a small protein, LgBit (Large Bit) was obtained from Promega. These cells express endogenous STAT6. […] Single cell clones were prepared and the clone 4.14 was selected for the assay based on that clone showing high luminescence, high STAT6 phosphorylation upon stimulation with IL-4, and inhibition of luminescence when cells were treated with STAT6 siRNA. […] The measured DC50 (in nM) was determined.
QUANTITY: DC50 (nM)

Worked set:
COMPOUND | QUANTITY | MEASURE_UNIT | RESULT
CNc1ccn(-c2ccnc3c2cc([C@H](C)N2CC=C(c4c(C)cc(C(=O)N5CCC(CN6CCN(c7ncc(NC8CCC(=O)NC8=O)cc7F)C[C@@H]6C)CC5)cc4F)CC2)n3C)c(=O)c1 (stereo partly shown) [Example 2g94] | DC50 | nM | 6.6
CNc1cc(=O)n(-c2ccnc3c2cc([C@H](C)N2CCC(c4c(F)cc(C(=O)N5CCn6nc(CN7CCC(c8ccc(NC9CCC(=O)NC9=O)cc8F)CC7)cc6C5)cc4F)CC2)n3C)cc1F (stereo partly shown) [Example 2g111] | DC50 | nM | 0.6
CNc1ccn(-c2ccnc3c2cc([C@H](C)N2CC=C(c4c(C)cc(C(=O)N5CCn6nc(CN7CCC(c8ccc(NC9CCC(=O)NC9=O)c(OC)c8)CC7)cc6C5)cc4F)CC2)n3C)c(=O)c1 (stereo partly shown) [Example 2g116] | DC50 | nM | 0.3
CNc1ccn(-c2ccnc3c2cc([C@H](C)N2CCC(c4c(C)cc(C(=O)N5CCC(CN6CCN(c7ccc(N[C@@H]8CCC(=O)NC8=O)cc7F)CC6)CC5)cc4F)CC2)n3C)c(=O)c1 (single isomer, unassigned) [Example 2g44] | DC50 | nM | 12.2
CNc1ccn(-c2ccnc3c2cc([C@H](C)N2CC=C(c4c(C)cc(C(=O)N5CCn6nc(CC7(O)CCN(c8ccc(NC9CCC(=O)NC9=O)cc8F)CC7)cc6C5)cc4F)CC2)n3C)c(=O)c1 (stereo partly shown) [Example 2g26] | DC50 | nM | 1.5
CNc1cc(=O)n(-c2ccnc3c2cc([C@H](C)N2CC=C(c4c(F)cc(C(=O)N5CCn6nc(CN7CCC(c8ccc(NC9CCC(=O)NC9=O)cc8F)CC7)cc6C5)cc4F)CC2)n3C)cc1F (stereo partly shown) [Example 2g112] | DC50 | nM | 1.1

P. Cn1c(CN2CCC(c3c(F)cc(C(=O)N4CCC(CN5CCN(c6ccc(NC7CCC(=O)NC7=O)cc6F)CC5)CC4)cc3F)CC2)cc2c(-n3ccc4c(c3=O)CCN4)ccnc21 (stereo not shown) [Example 2g35]
Q. CNc1ccn(-c2ccnc3c2cc(CN2CCC(c4c(F)cc(C(=O)N5CCn6nc(CN7CCC(c8ccc(NC9CCC(=O)NC9=O)cc8F)CC7)cc6C5)cc4F)CC2)n3C)c(=O)c1 (stereo not shown) [Example 2g100]
R. C[C@@H](c1cc2c(-n3ccc4c(c3=O)CCN4)ccnc2n1C)N1CCC(c2ccc(C(=O)N3CCC(CN4CCN(c5ccc(N[C@H]6CCC(=O)NC6=O)cc5F)CC4)CC3)cc2)CC1 (single isomer, unassigned) [Example 2c36]
S. CNc1ccn(-c2ccnc3c2cc([C@@H](C)N2CC=C(c4c(F)cc(C(=O)N5CCn6nc(CN7CCC(c8ccc(NC9CCC(=O)NC9=O)cc8F)CC7)cc6C5)cc4F)CC2)n3C)c(=O)c1 (stereo partly shown) [Example 2g103]
Arrange the 4 compounds by rising DC50, starting with the smallest. To answer, write out the labels according to the requested order.
Q, R, S, P
(Q: 1.2 nM, R: 5.7 nM, S: 8.8 nM, P: 16 nM)
